# Test system: HOP-62 NSCLC
# method summary: NCI-60 one-dose screen, 48 h (100 = growth as untreated, 0 = no growth, -100 = all killed)
# condition set: 10 µM unless noted
About 83,000 compounds went through this panel and 20% of them were active in at least one assay; those are over-represented in the sample as a whole.
Classify by measured growth: 1 if it is equal to or exceeds 90%, 0 if it is smaller.

{"molecule": "Cc1c([C@H](C(Cl)Cl)[C@H](O)[C@H]2C[C@H](C)C(=O)O2)ccc2c1C(=O)[C@H]1[C@H]2C[C@@H](Br)[C@@]23O[C@@H](CO[C@H]2O)CC13C (stereo partly drawn)", "tgt": "HOP-62 NSCLC", "class label": 0}
{"molecule": "CC([C@H]1CCC2C3CCC4C[C@@H](N)CC[C@]4(C)C3CC[C@@]21C)N(C)C (stereo partly drawn)", "tgt": "HOP-62 NSCLC", "class label": 1}
{"molecule": "CN(CCC#N)c1ccc(/C=C(\\C#N)c2cccc(C(F)(F)F)c2)cc1", "tgt": "HOP-62 NSCLC", "class label": 0}
{"molecule": "CC(Br)c1nc2ccccc2cc1C(N)=O (stereo not drawn)", "tgt": "HOP-62 NSCLC", "class label": 1}
{"molecule": "NC(CSC(c1ccccc1)(c1ccccc1)c1ccccc1)C(=O)NCC(=O)O (stereo not drawn)", "tgt": "HOP-62 NSCLC", "class label": 0}

API: the following record is the query input.
Is growth for Cc1ccc(CC(=O)O)c(C)c1 at or above 90%? 1
